test system: Wolbachia pipientis; experiment: Anti-Wolbachia Cell-Based Screen; format: functional; design: scale not given: in the data most compounds retested in dose-response had high values; conditions: 5 µM
About 13,000 (27%) of roughly 48,000 compounds showed an effect of 50% or more. Some of the results follow.
Percent Effect: recorded values
measurement-name: Percent Effect (%)

{"compound": "CCCN1CCN(C(=O)c2cnccn2)[C@H]2CS(=O)(=O)C[C@H]21", "study-system": "Wolbachia pipientis", "measured": -1.357}
{"compound": "COc1ccc(OC)c(CN2CCC(c3cc(O)nc(C)n3)C2)c1 (stereo not drawn)", "study-system": "Wolbachia pipientis", "measured": 99.72}
{"compound": "COCCN(C(=O)c1cnccn1)c1nc2c(s1)CCc1c-2cnn1C", "study-system": "Wolbachia pipientis", "measured": 99.99}

----------
system: Wolbachia pipientis; assay: Anti-Wolbachia Cell-Based Screen; assay type: functional; parameters: scale not given: in the data most compounds retested in dose-response had high values; settings: 5 µM
Hit rate of the full screen: of about 48,000 compounds, about 13,000 (27%) showed an effect of 50% or more. Some of the results follow.

{"cpd-smiles": "O=C(c1ccccc1)N1CCO[C@@H]2CN(Cc3ccc[nH]3)C[C@@H]2C1", "u": "%", "Percent Effect": 106.1}
{"cpd-smiles": "O=C(O)C(F)(F)F.O=C([C@H]1CN(Cc2ccccc2F)C[C@H]2OCC[C@@H]12)N1CCCO1", "u": "%", "Percent Effect": 3.627}
{"cpd-smiles": "COc1ccccc1CN1C[C@@H]2CN(Cc3cccnc3)CCO[C@@H]2C1.O=C(O)C(F)(F)F.O=C(O)C(F)(F)F.O=C(O)C(F)(F)F", "u": "%", "Percent Effect": -7.53}

----------
Listed compounds paired with reported Percent Effect
tested on: Wolbachia pipientis; assay: Anti-Wolbachia Cell-Based Screen; format: functional; design: scale not given: in the data most compounds retested in dose-response had high values; conditions: 5 µM
Among all 48,000 compounds or so, about 13,000 (27%) showed an effect of 50% or more. The list shows a part of the results.

{"compound": "Cn1cc(-c2nnc3sc(C4CC4)nn23)cn1", "Percent Effect (%)": 89.59}
{"compound": "CC(C)(C)c1ncc(C(=O)NCCNC(=O)c2ccccc2)s1", "Percent Effect (%)": 3.571}
{"compound": "CCCC1CCCN(Cc2csc(-c3cnn(C)c3)n2)CC1 (stereo not given)", "Percent Effect (%)": -16.04}
{"compound": "CC(Nc1ncnc2c1CCNC2)c1ccc2c(c1)CCCC2 (stereo not given)", "Percent Effect (%)": -81.25}
{"compound": "O=C(NCCNc1ncccn1)c1cnc(-c2ccccc2)nc1", "Percent Effect (%)": 9.369}
{"compound": "CN1C[C@]2(CC[C@@H](C(=O)O)CC2)Oc2ccccc2C1=O", "Percent Effect (%)": 130.9}
{"compound": "CC(C)(C)c1ncc(C(=O)NCCNC(=O)c2cccs2)s1", "Percent Effect (%)": 110.8}
{"compound": "CC(C)(C)c1ncc(C(=O)NCCNc2ncccn2)s1", "Percent Effect (%)": 108.5}
{"compound": "Cc1ccccc1OC(C(=O)N1CCC2(CC1)CN(C)C(=O)O2)C(C)C (stereo not given)", "Percent Effect (%)": -8.932}
{"compound": "Cc1cc(C)c2nc(C)cc(C(=O)NCc3csc(N(C)C)n3)c2c1", "Percent Effect (%)": -46.67}
